result type: melting point

[
  {
    "mol smiles": "N#Cc1cnc2cnc(NCCN3CCOCC3)cc2c1Nc1cccc(Br)c1",
    "observed value": "80 to 96 °C (dec.)"
  },
  {
    "mol smiles": "C#Cc1cc2c(Nc3cccc(Br)c3)c(C#N)cnc2cn1",
    "observed value": "224 °C (dec.)"
  },
  {
    "mol smiles": "CN(C)CC=CC(=O)Nc1cc2c(Nc3cccc(Br)c3)c(C#N)cnc2cn1",
    "observed value": "180 to 185 °C (dec.)"
  },
  {
    "mol smiles": "Cc1ccc(Nc2c(C#N)cnc3cnc(F)cc23)cc1O",
    "observed value": "236 to 239 °C (dec.)"
  },
  {
    "mol smiles": "N#Cc1cnc2cnc(Cl)cc2c1Nc1cccc(Br)c1",
    "observed value": "220 to 223 °C"
  },
  {
    "mol smiles": "CC#CC(=O)Nc1cc2c(Nc3cccc(Br)c3)c(C#N)cnc2cn1",
    "observed value": "255 °C (dec.)"
  },
  {
    "mol smiles": "COc1ccc(CNc2cc3c(Nc4cccc(Br)c4)c(C#N)cnc3cn2)cc1",
    "observed value": "82 to 86 °C (dec.)"
  },
  {
    "mol smiles": "CN(C)CCOc1cc2c(Nc3ccc(F)c(Cl)c3)c(C#N)cnc2cn1",
    "observed value": "131 to 132 °C"
  },
  {
    "mol smiles": "N#Cc1cnc2cnc(F)cc2c1Nc1cccc(Br)c1",
    "observed value": "185 to 195 °C"
  },
  {
    "mol smiles": "CN(C)CCOc1cc2c(Nc3cccc(Br)c3)c(C#N)cnc2cn1",
    "observed value": "138 to 139 °C"
  },
  {
    "mol smiles": "N#Cc1cnc2cnc(F)cc2c1Nc1ccc(Cl)cc1Cl",
    "observed value": "206 to 208 °C"
  }
]
